Target: ERα (Homo sapiens)
Sequence (P03372 1-595): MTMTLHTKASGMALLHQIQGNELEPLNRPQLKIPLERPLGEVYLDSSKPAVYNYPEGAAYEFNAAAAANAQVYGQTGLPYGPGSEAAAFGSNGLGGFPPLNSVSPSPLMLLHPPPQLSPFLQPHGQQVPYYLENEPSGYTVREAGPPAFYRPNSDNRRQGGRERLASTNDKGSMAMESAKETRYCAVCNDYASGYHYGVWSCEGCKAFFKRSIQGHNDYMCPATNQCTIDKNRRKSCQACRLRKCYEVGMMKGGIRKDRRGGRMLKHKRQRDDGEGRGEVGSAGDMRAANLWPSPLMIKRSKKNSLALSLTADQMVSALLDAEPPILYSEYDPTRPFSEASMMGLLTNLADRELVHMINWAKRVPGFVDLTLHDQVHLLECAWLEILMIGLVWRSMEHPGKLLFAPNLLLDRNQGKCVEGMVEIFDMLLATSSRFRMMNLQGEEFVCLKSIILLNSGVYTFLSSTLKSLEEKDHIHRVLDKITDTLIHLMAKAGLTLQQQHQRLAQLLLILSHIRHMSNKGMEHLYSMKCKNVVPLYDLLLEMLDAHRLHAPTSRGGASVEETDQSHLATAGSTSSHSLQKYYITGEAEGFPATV
Experiment: Estrogen receptor-alpha (ERα) degradation assay in MCF-7 cells using western blot
Assay type: cell-based
Set-up: assessed for their activity in degrading ERα in MCF-7 cells via western blot; endogenous in cells; host or cells: MCF7 cells
Details: ER-alpha degradation, MCF7 cells, 3 days of incubation
// reported Dmax per item
Result Type: Dmax

{"Smiles": "Cc1ncsc1-c1ccc(CNC(=O)[C@@H]2C[C@@H](O)CN2C(=O)[C@@H](NC(=O)CCc2cccc(-c3ccn(CCOc4ccc(Oc5c(-c6ccc(F)cc6)sc6cc(O)ccc56)cc4)n3)c2)C(C)(C)C)cc1", "Result Type": "Dmax", "Experimental Result": "> 75%"}
{"Smiles": "Cc1ncsc1-c1ccc([C@H](C)NC(=O)[C@@H]2C[C@@H](O)CN2C(=O)[C@@H](NC(=O)COCCOCCOCCOc2ccc(Oc3c(-c4ccc(Br)cc4)sc4cc(O)ccc34)cc2)C(C)(C)C)cc1", "Result Type": "Dmax", "Experimental Result": "> 75%"}
{"Smiles": "Cc1ncsc1-c1ccc(CNC(=O)[C@@H]2C[C@@H](O)CN2C(=O)[C@@H](NC(=O)COCCN2CCN(CCOc3ccc(Oc4c(-c5ccc(Br)cc5)sc5cc(O)ccc45)cc3)CC2)C(C)(C)C)cc1", "Result Type": "Dmax", "Experimental Result": "> 75%"}

* * *

Target: ERα (Homo sapiens)
Test: ERE luciferase reporter gene assay in T47D-KBluc cells (target engagement)
Assay type: cell-based
Parameters: T47D human breast cancer cells stably transfected with estrogen responsive element/promoter/luciferase reporter gene; host or cells: T47D-KBluc cells
Settings: 10% FBS, 24 hours, Table 2 VHL centric PROTACs, read-out: IC50
Method: Chimeric molecules were assessed for target engagement in T47D cells using the commercial kit of ERE luciferase reporter gene assay. In the assay, 10% FBS was included and estrogen level was measured to be 10 pM. ERE Luciferase Assay for Compounds in Table 1-3. […]
pIC50: −log10 of the molar value.
Below, each entry is listed alongside its reported pIC50.

{"Molecule": "Cc1ncsc1-c1ccc(CNC(=O)[C@@H]2C[C@@H](O)CN2C(=O)[C@@H](NC(=O)CCCOCC2CCN(CCOc3ccc(Oc4c(-c5ccc(F)cc5)sc5cc(O)ccc45)cc3)C2)C(C)(C)C)cc1 (some centres unmarked)", "Lt Gt Eq": "=", "pIC50": 9.40}
{"Molecule": "C[C@H](NC(=O)[C@@H]1C[C@@H](O)CN1C(=O)[C@@H](NC(=O)COCCOCCN1CCC(c2ccc(Oc3c(-c4ccc(F)cc4)sc4cc(O)ccc34)cc2)CC1)C(C)(C)C)c1ccc(Cl)cc1", "Lt Gt Eq": "<", "pIC50": 7.00}
{"Molecule": "Cc1ncsc1-c1ccc([C@H](C)NC(=O)[C@@H]2C[C@@H](O)CN2C(=O)[C@@H](NC(=O)COCCOCCOCCOc2ccc(Oc3c(-c4ccc(Br)cc4)sc4cc(O)ccc34)cc2)C(C)(C)C)cc1", "Lt Gt Eq": "=", "pIC50": 9.70}
{"Molecule": "Cc1ncsc1-c1ccc(CNC(=O)[C@@H]2C[C@@H](O)CN2C(=O)[C@@H](NC(=O)CCc2cccc(-c3ccn(CCOc4ccc(Oc5c(-c6ccc(F)cc6)sc6cc(O)ccc56)cc4)n3)c2)C(C)(C)C)cc1", "Lt Gt Eq": "=", "pIC50": 8.46}
{"Molecule": "C[C@H](NC(=O)[C@@H]1C[C@@H](O)CN1C(=O)[C@@H](NC(=O)COCCOCCOCCOc1ccc(Oc2c(-c3ccc(F)cc3)sc3cc(O)ccc23)cc1)C(C)(C)C)c1ccc(C#N)cc1", "Lt Gt Eq": "=", "pIC50": 8.89}

* * *

Below is a list of entries, each paired with its recorded DC50 value.
target: ERα (Homo sapiens, UniProt P03372); assay: Estrogen receptor-alpha (ERα) degradation assay in MCF7 cells using In-Cell Western assay; format: cell-based; design: assessed for their activity in degrading ERα in MCF-7 cells via western blot; endogenous in cells; host or cells: MCF7 cells; conditions: ER-alpha degradation in MCF7 cells, 5 days of incubation
Result Type: DC50

{"Molecule": "O=C1CCC(N2Cc3cc(N4CCN(CCCOc5ccc(Oc6c(-c7ccc(F)c(F)c7)sc7cc(O)ccc67)cc5)CC4)ccc3C2=O)C(=O)N1 (stereo not drawn) [Compound 221]", "Experimental Result": "1 to 10 nM"}
{"Molecule": "O=C1CCC(N2Cc3cc(N4CCN(CCCOc5ccc(Oc6c(-c7ccc(OC(F)(F)F)cc7)sc7cc(O)ccc67)cc5)CC4)ccc3C2=O)C(=O)N1 (stereo not drawn) [Compound 217]", "Experimental Result": "1 to 10 nM"}
{"Molecule": "O=C1CCC(N2C(=O)c3ccc(N4CCN(CC5CCN(c6ccc(Oc7c(-c8ccc(F)cc8)sc8cc(O)ccc78)cc6)CC5)CC4)cc3C2=O)C(=O)N1 (stereo not drawn) [Compound 227]", "Experimental Result": "1 to 10 nM"}

* * *

Target: ERα (Homo sapiens)
Sequence (P03372 1-595): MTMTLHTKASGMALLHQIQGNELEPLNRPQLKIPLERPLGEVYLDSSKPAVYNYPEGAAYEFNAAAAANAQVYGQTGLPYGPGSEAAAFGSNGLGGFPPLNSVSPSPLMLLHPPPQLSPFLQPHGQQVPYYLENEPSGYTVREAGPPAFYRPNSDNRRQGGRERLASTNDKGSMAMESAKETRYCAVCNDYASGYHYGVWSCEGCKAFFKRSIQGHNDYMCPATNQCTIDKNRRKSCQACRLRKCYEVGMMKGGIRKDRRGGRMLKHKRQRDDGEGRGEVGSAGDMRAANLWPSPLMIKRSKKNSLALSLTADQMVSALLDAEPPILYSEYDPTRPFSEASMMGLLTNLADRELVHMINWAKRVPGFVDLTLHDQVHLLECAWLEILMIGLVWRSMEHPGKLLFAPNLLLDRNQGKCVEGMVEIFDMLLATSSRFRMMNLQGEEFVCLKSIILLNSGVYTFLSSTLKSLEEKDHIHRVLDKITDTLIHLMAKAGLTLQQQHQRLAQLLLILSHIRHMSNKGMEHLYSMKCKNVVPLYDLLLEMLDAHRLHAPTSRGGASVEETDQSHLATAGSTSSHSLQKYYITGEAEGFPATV
Assay: Estrogen receptor-alpha (ERα) degradation assay in MCF7 cells using In-Cell Western assay
Type: cell-based
Parameters: assessed for their activity in degrading ERα in MCF-7 cells via western blot; endogenous in cells; host or cells: MCF7 cells
Conditions: ER-alpha degradation in MCF7 cells, 5 days of incubation
Item-by-item account of Dmax

{"Molecule": "O=C1CCC(N2C(=O)c3ccc(N4CCC(CN5CC(c6ccc(Oc7c(-c8ccc(Br)cc8)sc8cc(O)ccc78)cc6)C5)CC4)cc3C2=O)C(=O)N1 (centres unmarked)", "Dmax": "50 to 75%"}
{"Molecule": "O=C1CCC(N2Cc3c(ccc(N4CCN(C5CCN(CCOc6ccc(Oc7c(-c8ccc(C(F)(F)F)cc8)sc8cc(O)ccc78)cc6)CC5)CC4)c3F)C2=O)C(=O)N1 (centres unmarked)", "Dmax": "> 75%"}
{"Molecule": "O=C1CCC(N2Cc3cc(CNC(=O)C4CCN(CCOc5ccc(Oc6c(-c7ccc(Br)cc7)sc7cc(O)ccc67)cc5)CC4)ccc3C2=O)C(=O)N1 (centres unmarked)", "Dmax": "50 to 75%"}
{"Molecule": "O=C1CCC(N2Cc3cc(N4CCN(CC5CCN(c6ccc(Oc7c(-c8ccc(Br)cc8)sc8cc(O)ccc78)cn6)CC5)CC4)ccc3C2=O)C(=O)N1 (centres unmarked)", "Dmax": "> 75%"}
{"Molecule": "O=C1CCC(N2Cc3cc(N4CCN(C5CCN(CCOc6ccc(Oc7c(-c8ccc(C(F)(F)F)cc8)sc8cc(O)ccc78)cc6)CC5)CC4)ccc3C2=O)C(=O)N1 (centres unmarked)", "Dmax": "> 75%"}
